meta.source: the supplement of paper PMC7214452

test system: OCI-MY5/Vec (cancer type: MM); experiment: normalized area under the dose-response curve (viability relative to DMSO control) (fraction); higher = less sensitive (more viable cells); details: exposure time not given
Where a name gives a salt, the structure may show the parent alone.
normalized area under the dose-response curve of 0.8 or higher: Yes. Under 0.8: No.

Task item: Would you say "Cc1sc2c(c1C)C(c1ccc(Cl)cc1)=N[C@@H](CC(=O)OC(C)(C)C)c1nnc(C)n1-2" shows normalized area under the dose-response curve at minimum 0.8?
Reply: No

Task item: And then "Cn1ncc(Cl)c1-c1cc(C(=O)N[C@H](CN)Cc2cccc(F)c2)sc1Cl" , what is it?
Reply: No

Task item: Could you do the same for "C[C@@H]1CCN(C(=O)CC#N)C[C@@H]1N(C)c1ncnc2[nH]ccc12" , please?
Reply: Yes

Task item: Thanks! And N[C@@H](Cc1ccc(N(CCCl)CCCl)cc1)C(=O)O [Melphalan hydrochloride] ?
Reply: Yes

Task item: Also need "CN(C)C/C=C/C(=O)Nc1cc2c(Nc3ccc(F)c(Cl)c3)ncnc2cc1O[C@H]1CCOC1" , thanks.
Reply: No

Task item: Try the compound "O=C(CCCCCCC(=O)Nc1ccccc1)NO"
Reply: No

Task item: Another compound to check: "Cc1cc(Nc2ncc(Cl)c(Nc3ccccc3S(=O)(=O)C(C)C)n2)c(OC(C)C)cc1C1CCNCC1"
Reply: No

Task item: Now the compound "Cc1cn(-c2cc(NC(=O)c3ccc(C)c(Nc4nccc(-c5cccnc5)n4)c3)cc(C(F)(F)F)c2)cn1"
Reply: Yes

Task item: Can you check "CC(=O)Nc1cccc(-n2c(=O)n(C3CC3)c(=O)c3c(Nc4ccc(I)cc4F)n(C)c(=O)c(C)c32)c1" next?
Reply: Yes

Task item: What about "CC1(COc2ccc3c(c2)ncn3-c2ccc3cccc(N4CCC(N)CC4)c3n2)COC1" ?
Reply: No

Task item: Proceed to "COc1nc(N)nc2c1ncn2[C@@H]1O[C@H](CO)[C@@H](O)[C@@H]1O"
Reply: Yes

Task item: Also COc1cc2nccc(Oc3ccc(NC(=O)C4(C(=O)Nc5ccc(F)cc5)CC4)cc3)c2cc1OC [Cabozantinib] ?
Reply: No

Task item: Moving on to "Cc1noc2c1-c1ccccc1C(c1ccc(Cl)cc1)=N[C@H]2CC(N)=O"
Reply: No

Task item: // next record "CNC(=O)c1cc(Oc2ccc(NC(=O)Nc3ccc(Cl)c(C(F)(F)F)c3)c(F)c2)ccn1"
Reply: Yes

Task item: Also "C[C@@H](Oc1cc(-c2cnn(C3CCNCC3)c2)cnc1N)c1c(Cl)ccc(F)c1Cl" , if possible.
Reply: No

Task item: Record: "COc1cc2/c(=N/c3ccc(Br)cc3F)nc[nH]c2cc1OCC1CCN(C)CC1"
Reply: Yes

Task item: Subsequent entry: "Cc1ccc(F)c(NC(=O)Nc2ccc(-c3cccc4[nH]nc(N)c34)cc2)c1"
Reply: No

Task item: Next up: "Cc1[nH]c2ccccc2c1CCNCc1ccc(/C=C/C(=O)NO)cc1"
Reply: No

Task item: Also need "CC1(C)CCC(CN2CCN(c3ccc(C(=O)NS(=O)(=O)c4ccc(NCC5CCOCC5)c([N+](=O)[O-])c4)c(Oc4cnc5[nH]ccc5c4)c3)CC2)=C(c2ccc(Cl)cc2)C1" , thanks.
Reply: No
